Assay: NCI Yeast Anticancer Drug Screen. Data for the cln2 rad14 strain (AID 165);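 note: 0% = growth equal to vehicle treated cultures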
Details: S. cerevisiae cln2 rad14 strain, at 50.0 µM, stronger effect = higher value
The panel holds about 79,000 compounds, 15% with a hit somewhere; the sample as a whole holds those more often.
readout.kind: growth inhibition (%)
API: value field is a number in %; no unit string.

>>> readout_number("O=c1[nH]cc(Cn2cnc3ncccc3c2=O)c(=O)[nH]1")
40.5
>>> readout_number("C[C@]12CC[C@H]3[C@@H](C[C@@H](F)C4=CC(=O)CC[C@@]43C)[C@@H]1CC[C@@H]2O")
6.75
>>> readout_number("Nc1nnc(N)n1-n1c(N)nnc1N")
-13.2
>>> readout_number("CC12CCC(O)CC1CCC1C2CCC2(C)C(C(=O)CC(O)C(F)(F)F)CCC12 (stereo not given)")
71.2

Exercise: Entry CCC1(O)C(=O)OCc2c1cc1n(c2=O)Cc2cc3cc(Cl)ccc3nc2-1 (stereo not given) has what growth inhibition?
Solution: 45.9

###

Assay: NCI Yeast Anticancer Drug Screen. Data for the sgs1 mgt1 strain (AID 161);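 note: 0% = growth of cultures given vehicle only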
Conditions: S. cerevisiae sgs1 mgt1 strain, at 5.0 µM (retest, dose inferred, filed as 0.5)
Procedure: Growth inhibition of yeast strains with defined genetic alterations is measured as a screen for potential anti-cancer activity. Selected strains with alterations in DNA damage repair or cell cycle control were exposed to compounds and growth inhibition was measured relative to vehicle treated controls. The strain used in this assay is sgs1 mgt1
About 79,000 compounds went through this panel and 15% of them were active in at least one assay; those are over-represented in the sample as a whole. The source made the active and inactive calls. Rule as the data show it: active = growth inhibition above about 70%; inactive = the rest.
Classes to choose from: active, inactive

Some entries whose results are on file:
>>> group("CC(=O)OC1CCC2(C)C3=C(CCC2C1(C)C)C1(C)CCC(C(C)CCC2NC2(C)C)C1(C)CC3 (stereo unspecified)")
"inactive"
>>> group("CC[C@H](C)c1occ2c(O)c(C(=O)O)c(=O)cc-2c1C")
"active"
>>> group("CN(Cc1ccccc1)CC(O)c1ccc(Cl)cc1 (stereo unspecified)")
"inactive"
>>> group("O=C1C2CCN(CC2)C1CN1CCOCC1 (stereo unspecified)")
"inactive"
>>> group("CCC[CH2][Sn]([CH2]CCC)([CH2]CCC)[O]C(=O)C[N+](C)(C)c1cc[c]([Hg][c]2ccc(N(C)C)cc2)cc1")
"active"
>>> group("COc1cc2c3c(c1)-c1c(ccc(OC)c1OC)CC3N(CCCl)CC2 (stereo unspecified)")
"inactive"
>>> group("CC1(Cl)CC(C)(/C=C/Cl)C(Cl)CC1Cl (stereo unspecified)")
"inactive"
>>> group("[C](#Cc1ccccc1)[Hg][C]#Cc1ccccc1")
"active"

Exercise: Just curious, what result did CCOC(=O)C1C2c3ccccc3C(c3ccccc32)C1C(=O)OCC (stereo unspecified) get here?
Solution: inactive

Exercise: Please do the same for CC(Br)CN(CC(C)Br)c1ccc2c(c1)Cc1ccccc1-2 (stereo unspecified) as well.
Solution: inactive

Exercise: Here is the next compound: `NNc1ccccc1Cl`
Solution: inactive

###

Assay: NCI Yeast Anticancer Drug Screen. Data for the rad50 strain (AID 155);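 note: 0% = growth of vehicle-only cultures of the same strain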
Conditions: S. cerevisiae rad50 strain growth inhibition; at 5.0 µM (retest, dose inferred, filed as 0.5); stronger effect = higher value
About 79,000 compounds went through this panel and 15% of them were active in at least one assay; those are over-represented in the sample as a whole.
readout.kind: growth inhibition (%)
Give the value, in units of %, as a plain number.

>>> readout_number("CC12CCC(O)CC1=CCC1C2CCC2(C)C(NC(=O)C3CCCN3C(=O)CN(CCCl)CCCl)CCC12 (configuration not stated)")
-5

Exercise: Requested field: growth inhibition. Item: CCOC(=O)N(C(=O)c1ccc([As]=O)cc1)C(=O)c1ccc([As]=O)cc1 (configuration not stated)
Solution: 8

Exercise: And for `CC[C@@]1(O)C(=O)OCc2c1cc1n(c2=O)Cc2cc3ccccc3nc2-1` ?
Solution: 97

Exercise: How about `ClCC[N+]12CC[N+](CCCl)(CC1)C2` ?
Solution: 59

Exercise: Here is the next compound: `CC1=C[n+]2cc(C)ccc2Sc2c1ccc1ccccc21`
Solution: -2

Exercise: Same question for COc1cc2c(c(OC)c1OC)-c1ccc(O)c(=O)cc1C(NC(C)=O)CC2 (configuration not stated) please.
Solution: 1

Exercise: Item: `c1ccc2cc3n[se]nc3cc2c1`
Solution: -14

Exercise: How about this compound: COC1C(C)OC(OC2CC(C)(O)Cc3cc4c(c(O)c32)C(=O)c2c(O)cc3c(c2C4=O)OC2OC3(C)C(O)C(N(C)C)C2O)C(OC)C1(C)OC (configuration not stated)
Solution: 69

Exercise: What do we get for `CN1C(=O)CC[C@@]2(C)C1=CC[C@H]1[C@@H]3CC[C@H](O)[C@@]3(C)CC[C@@H]12` ?
Solution: 7

Exercise: Please do the same for NC(C(=O)O)c1ccccc1Cl (configuration not stated) as well.
Solution: -161

Exercise: Here is the next compound: `Cc1cc(N(CCCl)CCCl)ccc1CN1CCCN(Cc2ccc(N(CCCl)CCCl)cc2C)C1c1ccc(N(CCCl)CCCl)cc1C`
Solution: 4

Exercise: // same read-out, input: N#CC(Nc1c(N)nc(-c2ccccc2)nc1N)c1ccc(N(CCCl)CCCl)cc1 (configuration not stated)
Solution: 4

Exercise: Same question for CC(C)NCC(O)c1ccccc1Cl (configuration not stated) please.
Solution: 3

Exercise: Can you check `CCCOc1ccc(/C=C/[N+](=O)[O-])cc1` next?
Solution: 11

Exercise: Also, `O=c1c2ccccc2[se]n1-c1cccnc1` please.
Solution: 8

###

Assay: NCI Yeast Anticancer Drug Screen. Data for the sgs1 mgt1 strain (AID 161);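 note: 0% = growth of cultures given vehicle only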
Details: S. cerevisiae sgs1 mgt1 strain, at 5.0 µM (retest, dose inferred, filed as 0.5), stronger effect = higher value
About 79,000 compounds went through this panel and 15% of them were active in at least one assay; those are over-represented in the sample as a whole.
Entries annotated with measured growth inhibition
Unit % implied. Number only.

>>> readout_number("ClCCN(CCCl)c1ccc(C2N(Cc3ccc(N(CCCl)CCCl)cc3Cl)CCCN2Cc2ccc(N(CCCl)CCCl)cc2Cl)cc1")
-1
>>> readout_number("COC1=CC(C)(C)C=C([Se][Se]C2=CC(C)(C)C=C(OC)C2=O)C1=O")
86
>>> readout_number("N#CC(Nc1c(N)nc(-c2ccccc2)nc1N)c1ccc(N(CCCl)CCCl)cc1 (centres undefined)")
2
>>> readout_number("O=C(O)CN(CCN(CC(=O)O)CC(=O)O)CC(=O)O")
11

Exercise: Item under review: CC1CCC2(OC1)OC1CC3C4CC=C5CC(OC6OC(CO)C(OC7OC(C)C(OC8OC(C)C(O)C(O)C8O)C(O)C7O)C(O)C6OC6OC(C)C(O)C(O)C6O)CCC5(C)C4CCC3(C)C1C2C (centres undefined) . Reported growth inhibition?
Solution: 99

Exercise: Now this one: `O=S(=O)(O)c1ccc(Cl)cc1.[Cd]`
Solution: 23

Exercise: Continue with `O=C(O)c1ccccc1[Se][Se]c1ccccc1C(=O)O`
Solution: 53

Exercise: // next record `O=c1oc2ccccc2c(O)c1C(c1ccc(-c2ccccc2)cc1)c1c(O)c2ccccc2oc1=O`
Solution: -16

Exercise: What do you get for `C[CH2][Pb]([CH2]C)([CH2]C)[n]1cnc2ccccc21` ?
Solution: 5

###

Quick reference: growth inhibition of the listed items.
Test: NCI Yeast Anticancer Drug Screen. Data for the rad14 strain (AID 159);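 note: 0% = growth of vehicle-treated control cultures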
Conditions: S. cerevisiae rad14 strain growth inhibition; at 3.7 µM; stronger effect = higher value
This is part of a sample that, as a whole, favours compounds with a hit. Of some 79,000 tested, about 15% had one in any assay. Activity calls are given as the source filed them. No stated cut-off is given here; in the data, active means growth inhibition above about 70%; inactive means the rest.

The following compounds have reported results that may help.
>>> result("CCN(CCCl)c1cc(CN(C)C)cc(NC(=O)c2ccc(C(=O)Nc3cc(CN(C)C)cc(N(CC)CCCl)c3)cc2)c1")
"-13% (inactive)"
>>> result("CC(C)CC(NC(=O)C(N)C(C)C)C(=O)NC(CCCCN)C(=O)Nc1ccc(N(CCCl)CCCl)cc1 (stereo not given)")
"0% (inactive)"
>>> result("O=[N+]([O-])O.[NH-]C1CCCCC1[NH-].[NH-]C1CCCCC1[NH-].[NH-]C1CCCCC1[NH-].[OH-].[OH-].[OH-].[Pt+4].[Pt+4].[Pt+4] (stereo not given)")
"-16% (inactive)"
>>> result("O=C(O)CCCOc1cc(Cl)c(Cl)cc1Cl")
"-4% (inactive)"

--- query ---
Exercise: Field request: growth inhibition | item: `CCCCCCCCCC[Se]C#N`
Solution: -2% (inactive)

###

growth inhibition reference
Test: NCI Yeast Anticancer Drug Screen. Data for the mec2-1 strain (AID 157)
Conditions: S. cerevisiae mec2-1 strain, at 50.0 µM, stronger effect = higher value
About 79,000 compounds went through this panel and 15% of them were active in at least one assay; those are over-represented in the sample as a whole.
Give just the numeric value; % need not be written.

Known results for molecules:
>>> readout_number("CC(C)(C)OOC(=O)c1ccccc1")
18.4
>>> readout_number("C(CCC[Te][Te]CCCCCCOC1CCCCO1)CCOC1CCCCO1 (configuration not stated)")
48.5
>>> readout_number("Cc1c(N)nc([C@H](CC(N)=O)NC[C@H](N)C(N)=O)nc1C(=O)N[C@H](C(=O)N[C@H](C)[C@@H](O)CC(=O)N[C@H](C(=O)NC(O[C@@H]1O[C@@H](C)[C@@H](N)[C@@H](O)[C@H]1O)C(O)c1nc(-c2nc(C(=O)NCCCCN)cs2)cs1)[C@@H](C)O)[C@@H](O[C@@H]1O[C@@H](CO)[C@@H](O)[C@H](O)[C@@H]1O[C@H]1O[C@H](CO)[C@@H](O)[C@H](OC(N)=O)[C@@H]1O)c1c[nH]cn1 (some centres not stated)")
92.8
>>> readout_number("Nc1nc(N)c2c(Cl)c(CNc3ccc(C(=O)NC(CC(=O)O)C(=O)O)cc3)ccc2n1 (configuration not stated)")
87.8
>>> readout_number("CC[C@@]1(O)C[C@H](OC2CC(N)C(O)C(C)O2)c2c(O)c3c(c(O)c2[C@H]1C(=O)OC)C(=O)c1cccc(O)c1C3=O (some centres not stated)")
87.5

Exercise: Recorded growth inhibition of C[n+]1[se]nc2cc(C(=O)c3ccccc3)ccc21 (tested in a mixture with another compound) , please.
Solution: 99.2

Exercise: Then what about the molecule `CN(C)C(=[Se])[Se]C(=[Se])N(C)C` ?
Solution: 96
